binders and their reported ELISA value (wash 3x every hour for 12 HRS)
- assayed.system: T1, Proleukin® (aldesleukin) (human, UniProt P60568 21-153, limits assumed)
- T1 construct: Variant of human wt IL-2 with C145S (C125S on mature IL-2); also called IL-2 (Proleukin®); human IL-2 (Proleukin)
- T1 sequence (P60568 other isoform, or with tags, fused parts or gaps limits assumed): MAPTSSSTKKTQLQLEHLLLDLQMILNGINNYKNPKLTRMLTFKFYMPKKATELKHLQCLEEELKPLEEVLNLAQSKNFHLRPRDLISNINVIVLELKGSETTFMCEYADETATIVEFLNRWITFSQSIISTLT
- test: ELISA, coated Proleukin, HEK293F supernatant 1:2
experimental.readout: ELISA value (wash 3x every hour for 12 HRS) (luminescence signal)

binder | observed.value
Antibody No: 10 (antibody, human IgG1, kappa, N297A, V domains shown, VK M33L + A50S; HEK293F supernatant) VH: EVQLVQSGAEVKKPGESLKISCKGSGYAFTNYLIEWVRQMPGKGLEWMGVINPGSGGTNYNEKFKGQVTISADKSISTAYLQWSSLKASDTAMYYCARWRGEGYYAYYDVWGQGTTVTVSS VL: AIRLTQSPSSFSASTGDRVTITCKASQSVDYQGDSYLNWYQQKPGKAPKLLIYSASNLESGVPSRFSGSGSGTDFTLTISSLQSEDFATYYCQQSNEDPYTFGGGTKVEIKR | 1630
Antibody No: 9 (antibody, human IgG1, kappa, N297A, V domains shown, VK A50T; HEK293F supernatant) VH: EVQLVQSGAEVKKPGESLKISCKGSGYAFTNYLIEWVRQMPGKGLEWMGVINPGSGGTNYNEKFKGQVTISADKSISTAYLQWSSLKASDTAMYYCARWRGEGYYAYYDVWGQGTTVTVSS VL: AIRLTQSPSSFSASTGDRVTITCKASQSVDYQGDSYMNWYQQKPGKAPKLLIYTASNLESGVPSRFSGSGSGTDFTLTISSLQSEDFATYYCQQSNEDPYTFGGGTKVEIKR | 686
Antibody No: 34 (antibody, human IgG1, kappa, N297A, V domains shown, VK A50T; HEK293F supernatant) VH: EVQLVQSGAEVKKPGESLKISCKGSGYAFSNYLIEWVRQMPGKGLEWMGVINPGSGGTYYNEKFKGQVTISADKSISTAYLQWSSLKASDTAMYYCARWRGEGYYAYYDVWGQGTTVTVSS VL: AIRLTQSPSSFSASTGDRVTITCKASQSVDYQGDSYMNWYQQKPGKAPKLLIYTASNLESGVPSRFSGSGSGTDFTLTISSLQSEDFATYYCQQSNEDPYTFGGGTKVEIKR | 1360
Antibody No: 21 (antibody, human IgG1, kappa, N297A, V domains shown, VK WT; HEK293F supernatant) VH: EVQLVQSGAEVKKPGESLKISCKGSGYAFSNYLIEWVRQMPGKGLEWMGVINPGSGGTNYNEKFKGQVTISADKSISTAYLQWSSLKASDTAMYYCARWRGEGYYAYYDVWGQGTTVTVSS VL: AIRLTQSPSSFSASTGDRVTITCKASQSVDYQGDSYMNWYQQKPGKAPKLLIYAASNLESGVPSRFSGSGSGTDFTLTISSLQSEDFATYYCQQSNEDPYTFGGGTKVEIKR | 892
Antibody No: 15 (antibody, human IgG1, kappa, N297A, V domains shown, VH N58Y; VK M33L + A50S; also called 108926) VH: EVQLVQSGAEVKKPGESLKISCKGSGYAFTNYLIEWVRQMPGKGLEWMGVINPGSGGTYYNEKFKGQVTISADKSISTAYLQWSSLKASDTAMYYCARWRGEGYYAYFDVWGQGTTVTVSS VL: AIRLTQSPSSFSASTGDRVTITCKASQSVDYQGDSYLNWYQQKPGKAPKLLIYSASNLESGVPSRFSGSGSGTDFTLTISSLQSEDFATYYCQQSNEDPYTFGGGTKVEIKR | 3800
